target: vanilloid receptor 1 (VR1/TRPV1) of the rat species (Rattus norvegicus); construct: The spinal column is removed from decapitated rats; from tissue; host or cells: primary cells dissociated from rat dorsal root ganglia; assay: FLIPR Ca2+ influx assay on rat dorsal root ganglia cells (pharmacological method I); assay type: cell-based; conditions: table 4; capsaicin; read-out: Ki (rat) Cap.
Sequence (O35433 whole entry): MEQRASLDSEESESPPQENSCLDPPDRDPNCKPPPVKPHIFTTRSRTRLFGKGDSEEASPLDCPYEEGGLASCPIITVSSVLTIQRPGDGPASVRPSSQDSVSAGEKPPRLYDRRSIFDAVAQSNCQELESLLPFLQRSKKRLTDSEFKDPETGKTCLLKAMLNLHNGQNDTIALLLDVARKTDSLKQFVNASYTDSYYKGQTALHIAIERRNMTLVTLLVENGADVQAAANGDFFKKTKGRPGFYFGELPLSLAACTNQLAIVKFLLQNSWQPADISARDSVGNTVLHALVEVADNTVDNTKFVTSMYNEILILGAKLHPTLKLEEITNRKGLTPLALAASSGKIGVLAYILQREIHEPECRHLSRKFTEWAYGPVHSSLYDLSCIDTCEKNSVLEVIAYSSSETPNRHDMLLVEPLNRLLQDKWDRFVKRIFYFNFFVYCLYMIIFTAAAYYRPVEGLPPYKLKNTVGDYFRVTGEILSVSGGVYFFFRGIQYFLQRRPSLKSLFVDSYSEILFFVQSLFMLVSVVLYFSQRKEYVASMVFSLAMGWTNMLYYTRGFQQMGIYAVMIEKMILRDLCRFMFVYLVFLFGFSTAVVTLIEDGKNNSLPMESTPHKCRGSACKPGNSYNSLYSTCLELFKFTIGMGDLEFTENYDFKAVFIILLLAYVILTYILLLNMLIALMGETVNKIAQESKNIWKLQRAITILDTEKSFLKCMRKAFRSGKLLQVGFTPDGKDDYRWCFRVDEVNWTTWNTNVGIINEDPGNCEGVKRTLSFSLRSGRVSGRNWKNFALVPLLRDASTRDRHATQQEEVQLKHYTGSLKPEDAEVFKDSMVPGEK
pKi: −log10 of the molar value.
Observed Property: pKi

[[record]]
compound = "CC(C(=O)NCc1ccc(C(F)(F)F)cc1N1CCC(C)(C)CC1)c1ccc(NS(C)(=O)=O)c(F)c1 (stereo not drawn) [Example 218]"
tested_system = "vanilloid receptor 1 (VR1/TRPV1) of the rat species (Rattus norvegicus)"
observed_property = "pKi"
test_value = 9.40

[[record]]
compound = "CC(C(=O)NCc1ccc(C(F)(F)F)nc1-c1ccc(Cl)cc1)c1ccc(NS(C)(=O)=O)c(F)c1 (stereo not drawn) [Example 147]"
tested_system = "vanilloid receptor 1 (VR1/TRPV1) of the rat species (Rattus norvegicus)"
observed_property = "pKi"
test_value = 9.00

[[record]]
compound = "CC(C(=O)NCc1ccc(C(F)(F)F)nc1Nc1ccccc1)c1ccc(NS(C)(=O)=O)c(F)c1 (stereo not drawn) [Example 110]"
tested_system = "vanilloid receptor 1 (VR1/TRPV1) of the rat species (Rattus norvegicus)"
observed_property = "pKi"
test_value = 7.20

[[record]]
compound = "Cc1cc(C(C)C(=O)NCc2ccc(C(F)(F)F)nc2N2CCC(C)CC2)ccc1NS(C)(=O)=O (stereo not drawn) [Example 196]"
tested_system = "vanilloid receptor 1 (VR1/TRPV1) of the rat species (Rattus norvegicus)"
observed_property = "pKi"
test_value = 9.40

[[record]]
compound = "COc1ccc(N2CCN(c3nc(C(F)(F)F)ccc3CNC(=O)C(C)c3ccc(NS(C)(=O)=O)c(F)c3)CC2)cc1 (stereo not drawn) [Example 221]"
tested_system = "vanilloid receptor 1 (VR1/TRPV1) of the rat species (Rattus norvegicus)"
observed_property = "pKi"
test_value = 8.72

[[record]]
compound = "CC(C(=O)NCc1ccc(C(F)(F)F)nc1N1CCCC1)c1ccc(NS(C)(=O)=O)c(Cl)c1 (stereo not drawn) [Example 102]"
tested_system = "vanilloid receptor 1 (VR1/TRPV1) of the rat species (Rattus norvegicus)"
observed_property = "pKi"
test_value = 8.13

[[record]]
compound = "CC1CCN(c2nc(C(C)(C)C)ccc2CNC(=O)C(C)c2ccc(NS(C)(=O)=O)c(F)c2)CC1 (stereo not drawn) [Example 241]"
tested_system = "vanilloid receptor 1 (VR1/TRPV1) of the rat species (Rattus norvegicus)"
observed_property = "pKi"
test_value = 9.30

[[record]]
compound = "CC(C(=S)NCc1ccc(C(F)(F)F)nc1N1CCCC1)c1ccc(NS(C)(=O)=O)c(F)c1 (stereo not drawn) [Example 129]"
tested_system = "vanilloid receptor 1 (VR1/TRPV1) of the rat species (Rattus norvegicus)"
observed_property = "pKi"
test_value = 8.80

[[record]]
compound = "CC(C)COc1cc(C(C)(C)C)ccc1CNC(=O)C(C)c1ccc(NS(C)(=O)=O)c(F)c1 (stereo not drawn) [Example 133]"
tested_system = "vanilloid receptor 1 (VR1/TRPV1) of the rat species (Rattus norvegicus)"
observed_property = "pKi"
test_value = 9.15

[[record]]
compound = "Cc1ccc(N2CCN(c3cc(C(F)(F)F)ccc3CNC(=O)C(C)c3ccc(NS(C)(=O)=O)c(F)c3)CC2)cc1 (stereo not drawn) [Example 246]"
tested_system = "vanilloid receptor 1 (VR1/TRPV1) of the rat species (Rattus norvegicus)"
observed_property = "pKi"
test_value = 9.30

[[record]]
compound = "CC(C(=O)NCc1ccc(C(F)(F)F)nc1N1CCN(c2ncccc2C(F)(F)F)CC1)c1ccc(NS(C)(=O)=O)c(F)c1 (stereo not drawn) [Example 213]"
tested_system = "vanilloid receptor 1 (VR1/TRPV1) of the rat species (Rattus norvegicus)"
observed_property = "pKi"
test_value = 8.70

[[record]]
compound = "CCCCOc1nc(C(C)(C)C)ccc1CNC(=O)C(C)c1ccc(NS(C)(=O)=O)c(F)c1 (stereo not drawn) [Example 235]"
tested_system = "vanilloid receptor 1 (VR1/TRPV1) of the rat species (Rattus norvegicus)"
observed_property = "pKi"
test_value = 9.22

[[record]]
compound = "CC1CC(C)CN(c2nc(C(F)(F)F)ccc2CNC(=O)C(C)c2ccc(NS(C)(=O)=O)c(F)c2)C1 (stereo not drawn) [Example 79]"
tested_system = "vanilloid receptor 1 (VR1/TRPV1) of the rat species (Rattus norvegicus)"
observed_property = "pKi"
test_value = 9.10

[[record]]
compound = "Cc1cc(C(C)C(=O)NCc2ccc(C(F)(F)F)nc2OCc2ccccc2)ccc1NS(C)(=O)=O (stereo not drawn) [Example 204]"
tested_system = "vanilloid receptor 1 (VR1/TRPV1) of the rat species (Rattus norvegicus)"
observed_property = "pKi"
test_value = 8.80

[[record]]
compound = "CCCCCOc1cc(C(C)(C)C)ccc1CNC(=O)C(C)c1ccc(NS(C)(=O)=O)c(F)c1 (stereo not drawn) [Example 153]"
tested_system = "vanilloid receptor 1 (VR1/TRPV1) of the rat species (Rattus norvegicus)"
observed_property = "pKi"
test_value = 9.15


###

molecular target: vanilloid receptor (VR1) (Homo sapiens, UniProt Q8NER1); construct: expressed in transfected cells; host or cells: CHO K1 cells (ECACC), stably transfected; test: FLIPR Ca2+ influx assay on CHO K1 cells transfected with the VR1 gene (pharmacological method II); type: cell-based; details: table 4; capsaicin; read-out: Ki (human) Cap.
Sequence (Q8NER1 whole entry): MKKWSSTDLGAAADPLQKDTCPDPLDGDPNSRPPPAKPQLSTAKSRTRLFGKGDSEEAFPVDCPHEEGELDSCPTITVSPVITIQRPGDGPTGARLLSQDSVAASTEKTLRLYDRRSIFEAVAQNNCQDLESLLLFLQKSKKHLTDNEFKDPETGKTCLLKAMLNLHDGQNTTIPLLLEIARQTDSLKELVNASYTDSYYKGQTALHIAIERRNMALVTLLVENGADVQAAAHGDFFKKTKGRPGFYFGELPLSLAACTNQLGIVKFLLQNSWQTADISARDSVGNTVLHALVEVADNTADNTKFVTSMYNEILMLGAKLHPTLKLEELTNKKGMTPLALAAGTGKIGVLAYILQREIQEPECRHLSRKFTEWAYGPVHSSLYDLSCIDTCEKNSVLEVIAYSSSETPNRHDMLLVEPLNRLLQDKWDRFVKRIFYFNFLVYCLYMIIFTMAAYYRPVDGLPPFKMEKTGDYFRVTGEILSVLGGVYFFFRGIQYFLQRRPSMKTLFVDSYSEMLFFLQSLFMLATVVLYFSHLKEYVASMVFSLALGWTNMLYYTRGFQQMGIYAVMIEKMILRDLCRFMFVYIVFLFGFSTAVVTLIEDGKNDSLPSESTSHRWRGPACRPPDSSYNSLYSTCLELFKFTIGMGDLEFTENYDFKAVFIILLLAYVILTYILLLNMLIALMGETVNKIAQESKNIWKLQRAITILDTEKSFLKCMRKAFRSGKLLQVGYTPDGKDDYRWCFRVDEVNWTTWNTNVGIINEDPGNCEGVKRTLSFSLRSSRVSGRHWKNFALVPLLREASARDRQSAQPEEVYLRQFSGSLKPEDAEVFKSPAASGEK
Observed Property: log10 of Ki (log10 of the value in nM)

[[record]]
compound = "CC(C(=O)NCc1ccc(C(F)(F)F)cc1N1CCCCCC1)c1ccc(NS(C)(=O)=O)c(F)c1 (stereo not shown)"
observed_property = "log10 of Ki"
test_value = 0.20

[[record]]
compound = "COc1cc(OC)cc(-c2cc(C(F)(F)F)ccc2CNC(=O)C(C)c2ccc(NS(C)(=O)=O)c(F)c2)c1 (stereo not shown)"
observed_property = "log10 of Ki"
test_value = 0.76

[[record]]
compound = "CCCOc1nc(C(F)(F)F)ccc1CNC(=O)C(C)c1ccc(NS(C)(=O)=O)c(F)c1 (stereo not shown)"
observed_property = "log10 of Ki"
test_value = -0.05

[[record]]
compound = "CCc1ccc(COc2nc(C(F)(F)F)ccc2CNC(=O)C(C)c2ccc(NS(C)(=O)=O)c(F)c2)cc1 (stereo not shown)"
observed_property = "log10 of Ki"
test_value = 0.57

[[record]]
compound = "CC(C(=O)NCc1ccc(C(C)(C)C)cc1OC1CCCC1)c1ccc(NS(C)(=O)=O)c(F)c1 (stereo not shown)"
observed_property = "log10 of Ki"
test_value = 0.26

[[record]]
compound = "CCCN(CCC)c1nc(C(F)(F)F)ccc1CNC(=O)C(C)c1ccc(NS(C)(=O)=O)c(F)c1 (stereo not shown)"
observed_property = "log10 of Ki"
test_value = -0.70

[[record]]
compound = "CC1CCN(c2nc(C(F)(F)F)ccc2CNC(=S)C(C)c2ccc(NS(C)(=O)=O)c(F)c2)CC1 (stereo not shown)"
observed_property = "log10 of Ki"
test_value = 0.15


###

target: vanilloid receptor 1 (VR1/TRPV1) of the rat species (Rattus norvegicus); construct: The spinal column is removed from decapitated rats; from tissue; host or cells: primary cells dissociated from rat dorsal root ganglia; assay: FLIPR Ca2+ influx assay on rat dorsal root ganglia cells (pharmacological method I); format: cell-based; details: table 4; capsaicin; read-out: Ki (rat) Cap.
Observed Property: Ki

[[record]]
compound = "CC(C(=O)NCc1ccc(C(F)(F)F)cc1N1CCN(c2ccc(C(F)(F)F)cc2)CC1)c1ccc(NS(C)(=O)=O)c(F)c1 (stereo not shown)"
test_value = "0.9 nM"

[[record]]
compound = "CC(C(=O)NCc1ccc(C(F)(F)F)nc1-c1ccc2c(c1)OCCO2)c1ccc(NS(C)(=O)=O)c(F)c1 (stereo not shown)"
test_value = "2.5 nM"

[[record]]
compound = "CC(C(=S)NCc1ccc(C(F)(F)F)nc1-c1ccc(F)cc1)c1ccc(NS(C)(=O)=O)c(F)c1 (stereo not shown)"
test_value = "4.5 nM"

[[record]]
compound = "Cc1ccc(COc2nc(C(F)(F)F)ccc2CNC(=O)C(C)c2ccc(NS(C)(=O)=O)c(F)c2)cc1 (stereo not shown)"
test_value = "0.4 nM"


###

molecular target: vanilloid receptor (VR1) (Homo sapiens, UniProt Q8NER1); construct: expressed in transfected cells; host or cells: CHO K1 cells (ECACC), stably transfected; assay: FLIPR Ca2+ influx assay on CHO K1 cells transfected with the VR1 gene (pharmacological method II); format: cell-based; settings: table 4; capsaicin; read-out: Ki (human) Cap.
Overview of recorded log10 Ki for various molecules
Observed Property: log10 Ki (log10 of the value in nM)

[[record]]
molecule = "CCCCc1ccc(COc2nc(C(F)(F)F)ccc2CNC(=O)C(C)c2ccc(NS(C)(=O)=O)c(F)c2)cc1 (centres unmarked)"
observed_property = "log10 Ki"
test_value = 1.20

[[record]]
molecule = "CC(C(=O)NCc1ccc(C(F)(F)F)cc1-c1ccc(C(C)(C)C)cc1)c1ccc(NS(C)(=O)=O)c(F)c1 (centres unmarked)"
observed_property = "log10 Ki"
test_value = 0.04

[[record]]
molecule = "CC(C(=O)NCc1ccc(C(F)(F)F)nc1-c1ccc(Cl)cc1)c1ccc(NS(C)(=O)=O)c(F)c1 (centres unmarked)"
observed_property = "log10 Ki"
test_value = -0.15

[[record]]
molecule = "CC(C(=O)NCc1ccc(C(F)(F)F)nc1SC1CCCCC1)c1ccc(NS(C)(=O)=O)c(F)c1 (centres unmarked) [Example 294]"
observed_property = "log10 Ki"
test_value = 0.28

[[record]]
molecule = "CC(C(=O)NCc1ccc(C(F)(F)F)nc1C=Cc1ccccc1)c1ccc(NS(C)(=O)=O)c(F)c1 (centres unmarked)"
observed_property = "log10 Ki"
test_value = 0.34

[[record]]
molecule = "CC(C(=O)NCc1ccc(C(F)(F)F)nc1Nc1ccc(F)cc1)c1ccc(NS(C)(=O)=O)c(F)c1 (centres unmarked)"
observed_property = "log10 Ki"
test_value = 1.59

[[record]]
molecule = "C/C=C\\COc1nc(C(F)(F)F)ccc1CNC(=O)C(C)c1ccc(NS(C)(=O)=O)c(F)c1 (centres unmarked)"
observed_property = "log10 Ki"
test_value = 0.20

[[record]]
molecule = "CC1CCN(c2cc(C(F)(F)F)ccc2CNC(=O)C(C)c2ccc(NS(C)(=O)=O)c(F)c2)CC1 (centres unmarked)"
observed_property = "log10 Ki"
test_value = -0.05

[[record]]
molecule = "CC(C(=O)NCc1ccc(C(F)(F)F)nc1N1CCC(F)CC1)c1ccc(NS(C)(=O)=O)c(F)c1 (centres unmarked)"
observed_property = "log10 Ki"
test_value = -0.30

[[record]]
molecule = "CC(C(=O)NCc1ccc(C(C)(C)C)cc1OCC(C)(C)C)c1ccc(NS(C)(=O)=O)c(F)c1 (centres unmarked)"
observed_property = "log10 Ki"
test_value = 0.58

[[record]]
molecule = "CC(C(=O)NCc1ccc(C(F)(F)F)nc1N1CCN(c2ccccn2)CC1)c1ccc(NS(C)(=O)=O)c(F)c1 (centres unmarked)"
observed_property = "log10 Ki"
test_value = 0.15

[[record]]
molecule = "CC(C)=Cc1nc(C(F)(F)F)ccc1CNC(=O)C(C)c1ccc(NS(C)(=O)=O)c(F)c1 (centres unmarked)"
observed_property = "log10 Ki"
test_value = 1.06

[[record]]
molecule = "CC(C(=O)NCc1ccc(C(F)(F)F)nc1OCC1CCN(C(=O)OC(C)(C)C)CC1)c1ccc(NS(C)(=O)=O)c(F)c1 (centres unmarked)"
observed_property = "log10 Ki"
test_value = 0.53

[[record]]
molecule = "COc1ccc(N2CCN(c3cc(C(F)(F)F)ccc3CNC(=O)C(C)c3ccc(NS(C)(=O)=O)c(F)c3)CC2)cc1 (centres unmarked)"
observed_property = "log10 Ki"
test_value = 0.20

[[record]]
molecule = "CC(C(=O)NCc1ccc(C(F)(F)F)nc1CCc1ccccc1)c1ccc(NS(C)(=O)=O)c(F)c1 (centres unmarked)"
observed_property = "log10 Ki"
test_value = 0.15

[[record]]
molecule = "CC(C(=O)NCc1ccc(C(F)(F)F)cc1N1CCC(C)(C)CC1)c1ccc(NS(C)(=O)=O)c(F)c1 (centres unmarked)"
observed_property = "log10 Ki"
test_value = 0.11

[[record]]
molecule = "CC(C(=O)NCc1ccc(C(F)(F)F)nc1OCc1ccccn1)c1ccc(NS(C)(=O)=O)c(F)c1 (centres unmarked)"
observed_property = "log10 Ki"
test_value = 1.47

[[record]]
molecule = "CC1CC(C)CN(c2nc(C(F)(F)F)ccc2CNC(=O)C(C)c2ccc(NS(C)(=O)=O)c(F)c2)C1 (centres unmarked)"
observed_property = "log10 Ki"
test_value = -0.15

[[record]]
molecule = "CC(C)CCOc1nc(C(C)(C)C)ccc1CNC(=O)C(C)c1ccc(NS(C)(=O)=O)c(F)c1 (centres unmarked)"
observed_property = "log10 Ki"
test_value = -0.10

[[record]]
molecule = "CC(C(=O)NCc1ccc(C(F)(F)F)nc1-c1cccs1)c1ccc(NS(C)(=O)=O)c(F)c1 (centres unmarked)"
observed_property = "log10 Ki"
test_value = -0.52

[[record]]
molecule = "Cc1cc(C(C)C(=O)NCc2ccc(C(F)(F)F)nc2N2CCC(C)CC2)ccc1NS(C)(=O)=O (centres unmarked)"
observed_property = "log10 Ki"
test_value = -0.22

[[record]]
molecule = "COc1nc(C(C)(C)C)ccc1CNC(=O)C(C)c1ccc(NS(C)(=O)=O)c(F)c1 (centres unmarked)"
observed_property = "log10 Ki"
test_value = 1.16

[[record]]
molecule = "CC(C(=O)NCc1ccc(C(F)(F)F)nc1OC1CCC1)c1ccc(NS(C)(=O)=O)c(F)c1 (centres unmarked)"
observed_property = "log10 Ki"
test_value = 0.15

